Provide the reported pKd of each item.
Molecular target: dopamine D-1 receptor (rat striatal homogenate) (Rattus norvegicus, UniProt P18901)
Construct: Striatal tissues were excised, pooled and homogenized
Sequence (P18901 whole entry): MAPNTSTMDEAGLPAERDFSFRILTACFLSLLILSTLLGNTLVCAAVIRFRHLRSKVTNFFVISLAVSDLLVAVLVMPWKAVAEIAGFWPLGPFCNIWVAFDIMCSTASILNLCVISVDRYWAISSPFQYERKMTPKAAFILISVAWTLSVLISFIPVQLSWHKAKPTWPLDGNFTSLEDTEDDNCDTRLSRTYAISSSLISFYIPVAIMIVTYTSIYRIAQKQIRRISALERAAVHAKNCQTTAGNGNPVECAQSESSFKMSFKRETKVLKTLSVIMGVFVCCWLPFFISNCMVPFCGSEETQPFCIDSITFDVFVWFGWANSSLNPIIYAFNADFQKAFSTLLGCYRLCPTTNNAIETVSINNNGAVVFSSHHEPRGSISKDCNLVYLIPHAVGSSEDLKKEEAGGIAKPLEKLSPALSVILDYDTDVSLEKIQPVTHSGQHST
Assay: Saturation binding of radioiodinated ligand to rat striatal homogenate
Settings: specific binding, rat striatal homogenate, racemic mixture
Answers are plain numbers, as −log10 of the molar value.

| molecule | pKd |
| --- | --- |
| CN1CCc2cc(Cl)c(O)cc2C(c2cccc(I)c2)C1 (centres unmarked) | 9.46 |

Turning now to a further molecule:
Checklist item: pKd tested on dopamine D-1 receptor (rat striatal homogenate) (Rattus norvegicus, UniProt P18901), entry CN1CCc2cc(Cl)c(O)cc2C(c2ccc(I)cc2)C1 (racemic) , value?
8.84

* * *

Target: dopamine D-1 receptor (rat striatal membranes) (Rattus norvegicus)
Construct: Striatal tissues were excised, pooled and homogenized; from tissue; host or cells: striatum of male Sprague-Dawley rats
Experiment: Competition: inhibition of [^125 I]FISCH binding to rat striatal membranes
Conditions: 0.15-0.30 nM [^125 I]FISCH, rat striatal membranes, three to five determinations; read-out: ki (mean + SEM)
Structures can show the parent of a compound that is named as a salt.
readoutName: pKi
Answers are plain numbers, as −log10 of the molar value.

Before answering, review these 2 worked examples.
| compound | val |
| --- | --- |
| CN1CCc2cc(Cl)c(O)cc2C(c2ccc(I)cc2)C1 (racemic) | 8.77 |
| CN1CCc2cc(I)c(O)cc2C(c2ccccc2)C1 (racemic) [(±) IBZP, reference compound] | 7.87 |

Turning now to a further compound:
Item COc1cccc(OC)c1OCCNCC1COc2ccccc2O1 (stereo not drawn) [WB 4101, hydrochloride, reference compound] has what recorded pKi?
5.90

* * *

Biological target: dopamine D-1 receptor (rat striatal membranes) (Rattus norvegicus, UniProt P18901)
Construct: Striatal tissues were excised, pooled and homogenized; from tissue; host or cells: striatum of male Sprague-Dawley rats
Experiment: Competition: inhibition of [^125 I]TISCH binding to rat striatal membranes
Conditions: [^125 I]TISCH, rat striatal membranes; read-out: ki (mean + SEM)
readoutName: Ki
Could you write the number and then its unit?

| molecule | Ki |
| --- | --- |
| CN1CCc2cc(Cl)c(O)cc2C(c2ccc(I)cc2)C1 (racemic) | 2.07 nM |

Turning now to a further molecule:
Item CN1CCc2cc(Cl)c(O)cc2C(c2cccc(I)c2)C1 (centres unmarked) has what recorded Ki?
0.55 nM
